Target: human kisspeptin receptor (Homo sapiens (Human), UniProt Q969F8)
Sequence (Q969F8 whole entry): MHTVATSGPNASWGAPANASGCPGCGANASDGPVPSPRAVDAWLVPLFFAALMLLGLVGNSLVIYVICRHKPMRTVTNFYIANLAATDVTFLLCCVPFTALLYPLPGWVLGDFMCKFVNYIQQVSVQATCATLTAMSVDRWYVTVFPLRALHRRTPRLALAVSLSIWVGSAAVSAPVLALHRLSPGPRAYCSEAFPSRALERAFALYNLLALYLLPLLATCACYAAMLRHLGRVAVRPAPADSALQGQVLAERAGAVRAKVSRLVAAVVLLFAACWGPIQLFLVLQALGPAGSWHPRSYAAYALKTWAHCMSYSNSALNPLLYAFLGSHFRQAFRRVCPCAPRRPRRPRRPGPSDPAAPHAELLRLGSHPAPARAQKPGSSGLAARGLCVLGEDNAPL
Experiment: Human KISS1R binding assay (membrane competition binding)
Settings: 90 min at room temperature; competition with 0.2 nM [125I]-metastin (45-54); Flp-In T-Rex 293 kisspeptin membranes; metal complexes nonradioactive Ga, In, Lu; read-out: hKiSSR Binding Ki (90 min)
Square brackets hold non-standard residues; d marks the D form. Peptide text beside a SMILES is read from it. * marks the point of attachment. DOTA = O=C(O)CN1CCN(CC(=O)O)CCN(CC(=O)*)CCN(CC(=O)O)CC1; Gly(N-(3-F-4-Me-benzyl)) = Cc1ccc(CNCC(=O)*)cc1F; Api(1-amidino) = N=C(N)N1CCC(N)(C(=O)O)CC1; Phe(3-F) = N[C@@H](Cc1cccc(F)c1)C(=O)O; d2Nal = N[C@H](Cc1ccc2ccccc2c1)C(=O)O; 4Pal = N[C@@H](Cc1ccncc1)C(=O)O; d4Pal = N[C@H](Cc1ccncc1)C(=O)O; 4Abz = Nc1ccc(C(=O)O)cc1; Api = NC1(C(=O)O)CCNCC1; Ahx = NCCCCCC(=O)O; azaGly = NNC(=O)O
assay_endpoint: Ki

Below, 4 molecules whose answers are already recorded.
Cc1ccc(CNCC(=O)N2CCC(NC(=O)[C@H](CC(C)C)NC(=O)NNC(=O)[C@H](Cc3cccc(F)c3)NC(=O)[C@@H](NC(=O)[C@H](CC(N)=O)NC(=O)[C@H](CCC(=O)O)NC(=O)CN3CCN(CC(=O)O)CCN(CC(=O)O)CCN(CC(=O)O)CC3)[C@@H](C)O)(C(=O)N[C@@H](Cc3ccncc3)C(N)=O)CC2)cc1F [Compound 171] ({DOTA}-ENT[Phe(3-F)][azaGly]L[Api](Gly(N-(3-F-4-Me-benzyl)))[4Pal]-NH2) ... 10 to 100 nM
CC(C)C[C@H](NC(=O)NNC(=O)[C@H](Cc1ccccc1)NC(=O)[C@@H](NC(=O)[C@H](CC(N)=O)NC(=O)[C@@H](Cc1ccc2ccccc2c1)NC(=O)[C@@H](Cc1ccc(O)cc1)NC(=O)CCCCCNC(=O)CN1CCN(CC(=O)O)CCN(CC(=O)O)CCN(CC(=O)O)CC1)[C@@H](C)O)C(=O)NC1(C(=O)N[C@@H](Cc2ccccc2)C(N)=O)CCN(C(=N)N)CC1 [Compound 300] ({DOTA-Ahx}-[dY][d2Nal]NTF[azaGly]L[Api(1-amidino)]F-NH2) ... < 10 nM
Cc1ccc(CNCC(=O)N2CCC(NC(=O)[C@H](CC(C)C)NC(=O)NNC(=O)[C@H](Cc3ccccc3)NC(=O)[C@@H](NC(=O)[C@H](CC(N)=O)NC(=O)[C@@H](Cc3ccncc3)NC(=O)CCCCCNC(=O)CN3CCN(CC(=O)O)CCN(CC(=O)O)CCN(CC(=O)O)CC3)[C@@H](C)O)(C(=O)N[C@@H](Cc3c[nH]c4ccccc34)C(N)=O)CC2)cc1F [Compound 296] ({DOTA-Ahx}-[d4Pal]NTF[azaGly]L[Api](Gly(N-(3-F-4-Me-benzyl)))W-NH2) ... < 10 nM
Cc1ccc(CNCC(=O)N2CCC(NC(=O)[C@H](CC(C)C)N3CC(NC(=O)[C@H](Cc4ccccc4)NC(=O)CCCCCNC(=O)CN4CCN(CC(=O)O)CCN(CC(=O)O)CCN(CC(=O)O)CC4)C3)(C(=O)N[C@@H](Cc3c[nH]c4ccccc34)C(N)=O)CC2)cc1F ... 10 to 100 nM

Attention now shifts to the item below.
Query string: Answer with the recorded Ki of Cc1ccc(CNCC(=O)N2CCC(NC(=O)[C@H](CC(C)C)NC(=O)NNC(=O)[C@H](Cc3ccccc3)NC(=O)c3ccc(NC(=O)CN4CCN(CC(=O)O)CCN(CC(=O)O)CCN(CC(=O)O)CC4)cc3)(C(=O)N[C@@H](Cc3c[nH]c4ccccc34)C(N)=O)CC2)cc1F [Compound 50] ({DOTA-4Abz}-F[azaGly]L[Api](Gly(N-(3-F-4-Me-benzyl)))W-NH2) only.
Result string: < 10 nM

Where do the numbers come from? From patent US20250312499A1.
